Molecular target: T1, dimeric human LTBR-Fc biotinylated (P1AE2401) (human, UniProt P36941 31-227, biotinylated in vitro)
T1 construct: bought from R&D Systems (7538-LR); also called human LTBR ECD; not shown: human IgG1 Fc-Fragment
Test: competition ELISA vs lymphotoxin α1β2 (P1AE1235)

# Binder, Unit symbol, IC50
data = [
    ("P1AF0079 (antibody, human IgG1, kappa, L234A L235A, V domains shown, human IgG1 PG LALA; from transgenic rabbit immunization; also called LTBR (0079)) VH: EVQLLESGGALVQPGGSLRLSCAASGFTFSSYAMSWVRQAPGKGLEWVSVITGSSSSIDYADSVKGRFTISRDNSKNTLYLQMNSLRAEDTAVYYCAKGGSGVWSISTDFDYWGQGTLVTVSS VL: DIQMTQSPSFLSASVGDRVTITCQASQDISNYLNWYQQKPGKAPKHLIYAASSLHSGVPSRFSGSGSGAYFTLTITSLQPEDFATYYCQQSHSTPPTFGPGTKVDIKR", "nM", 0.483),
    ("P1AF0064 (antibody, human IgG1, kappa, L234A L235A, V domains shown, human IgG1 PG LALA constant regions; V domains from rat immunization; also called LTBR (0064)) VH: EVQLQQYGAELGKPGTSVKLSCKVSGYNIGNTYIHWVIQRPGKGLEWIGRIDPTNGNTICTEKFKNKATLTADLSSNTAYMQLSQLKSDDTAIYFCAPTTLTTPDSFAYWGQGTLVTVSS VL: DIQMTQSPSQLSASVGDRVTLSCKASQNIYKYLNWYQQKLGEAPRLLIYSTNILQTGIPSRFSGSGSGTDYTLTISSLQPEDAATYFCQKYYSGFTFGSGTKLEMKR", "nM", 0.0815),
    ("P1AE1873 (CBE11) (antibody, human IgG1, kappa, L234A L235A, V domains shown) VH: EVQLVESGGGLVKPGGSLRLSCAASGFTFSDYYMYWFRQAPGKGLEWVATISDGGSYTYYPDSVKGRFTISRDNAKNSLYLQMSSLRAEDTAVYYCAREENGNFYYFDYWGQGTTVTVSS VL: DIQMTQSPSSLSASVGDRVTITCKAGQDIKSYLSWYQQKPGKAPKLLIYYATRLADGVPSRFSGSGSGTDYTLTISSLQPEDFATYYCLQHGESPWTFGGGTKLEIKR", "nM", 0.016),
    ("P1AE9452 (antibody, human IgG1, kappa, L234A L235A, V domains shown, human IgG1 PG LALA; from transgenic rabbit immunization; also called LTBR (9452)) VH: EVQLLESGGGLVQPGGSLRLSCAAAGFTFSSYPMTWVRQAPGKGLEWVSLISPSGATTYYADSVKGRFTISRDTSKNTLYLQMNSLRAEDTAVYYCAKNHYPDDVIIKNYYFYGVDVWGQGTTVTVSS VL: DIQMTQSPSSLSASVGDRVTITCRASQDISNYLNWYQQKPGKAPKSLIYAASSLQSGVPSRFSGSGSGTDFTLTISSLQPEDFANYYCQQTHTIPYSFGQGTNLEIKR", "nM", 0.474),
]
